- Tested on: MIP-1α
- assay.summary: LPS-stimulated J774 macrophages: MIP-1α production
- Format: cell-based
- condition: Mus musculus, J774; LPS 10 μg/ml; 30 min pretreatment 0.1 to 30 μM; measured at 3 h; mean±SEM n=3-6; read-out: Inhibition of MIP-1α (J774)
recorded.endpoint: pEC50
pEC50 is a log-scale quantity: -log10 of the concentration expressed in molar.

Example cases with answers are listed next.
>>> reported_value("O=C(CN1CCOCC1)Nc1ccc2[nH]c(=O)c3ccccc3c2c1")
4.95
>>> reported_value("CCN(CC)CC(=O)Nc1ccc2[nH]c(=O)c3ccccc3c2c1")
4.99
>>> reported_value("O=C(CN1CCCCC1)Nc1ccc2[nH]c(=O)c3ccccc3c2c1")
4.82

Query compound follows.
Field request: pEC50 | item: CN(C)CC(=O)Nc1ccc2[nH]c(=O)c3ccccc3c2c1
4.99

Values from patent US6531464B1
